- System: DU-145 prostate
- test_description: NCI tumour cell line growth inhibition, 48 h
endpoint: TGI

Observe how each entry below is paired with its result.
COc1ccc(OC)c2c(=O)cc(-c3ccccc3)[nH]c12 : > 100 µM
O=C(/C=C/c1c(O)c2ccccc2[nH]c1=O)CC(=O)C(=O)Nc1cccc(O)c1 : > 100 µM
CC(C(O)c1ccccc1)N(C)/N=N/c1nc2c([nH]1)c(=O)n(C)c(=O)n2C (centres undefined) : > 100 µM
COc1ccc(OC)c2sc(N3C(=O)/C(=C/c4ccccc4S)N=C3c3ccccc3)nc12 : > 100 µM
CC/C(=C/OC)P1(=O)OC(C)(C)CN1C(C)(C)C (centres undefined) : > 100 µM
COc1nc(C#CCCCC#N)nc(OC)n1 : 23.3 µM

Considering COC(=O)C(Cc1ccccc1)C(=O)NC(CNC(=O)OCc1ccccc1)C(=O)OCc1ccccc1 (centres undefined) , its TGI with DU-145 prostate was recorded as > 100 µM

Considering c1ccc2c(OCC3CO3)ccc(OCC3CO3)c2c1 (centres undefined) , its TGI with DU-145 prostate was recorded as 5.47 µM

Considering O=C1OC2(c3ccccc31)c1cc(I)c(O)c(I)c1Oc1c2cc(I)c(O)c1I , its TGI with DU-145 prostate was recorded as > 100 µM
